property measured: Kd
Give your result as the value with the unit written after it.

Request: Form: Entry = Nc1ncnc2c1ncn2[C@@H]1O[C@H](CO)[C@@H](O)[C@H]1O [ADENOSINE] | System = Streptavidin (Streptomyces avidinii, UniProt P22629) | Kd = ____
Response: 168 µM
